Cited source: patent US9365541B2

pIC50: −log10 of the molar value.
Reported pIC50, UniProt:Q13547.
Sequence (Q13547 whole entry): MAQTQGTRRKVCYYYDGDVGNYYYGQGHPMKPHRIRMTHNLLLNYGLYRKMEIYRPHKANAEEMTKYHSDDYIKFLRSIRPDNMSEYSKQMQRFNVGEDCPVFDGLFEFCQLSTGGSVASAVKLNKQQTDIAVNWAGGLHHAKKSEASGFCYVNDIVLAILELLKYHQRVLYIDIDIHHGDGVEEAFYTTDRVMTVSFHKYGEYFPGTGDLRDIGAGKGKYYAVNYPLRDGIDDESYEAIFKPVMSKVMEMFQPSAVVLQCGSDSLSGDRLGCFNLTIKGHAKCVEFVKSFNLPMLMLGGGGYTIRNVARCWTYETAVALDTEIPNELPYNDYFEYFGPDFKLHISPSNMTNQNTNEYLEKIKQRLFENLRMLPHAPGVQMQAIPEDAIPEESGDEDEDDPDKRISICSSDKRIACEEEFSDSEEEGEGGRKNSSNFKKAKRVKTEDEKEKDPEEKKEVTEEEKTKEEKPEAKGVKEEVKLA

CNC(=O)CCCCC[C@H](NC(=O)C1CCN(C)CC1)c1ncc(-c2ccc3ccncc3c2)[nH]1 : 5.30 to 6.00
CCc1nc2ccccc2n1CCC(=O)N[C@@H](CCCCCC(=O)NC)c1ncc(-c2cc3ccccc3nc2OC)[nH]1 : > 6.00
CNC(=O)CCCCC[C@H](NC(=O)c1cc(C(C)(C)C)nn1C)c1ncc(-c2ccc(-c3ccn(C)n3)cc2)[nH]1 : 5.30 to 6.00
CNC(=O)CCCCC[C@H](NC(=O)c1cncs1)c1ncc(-c2cc3ccccc3s2)[nH]1 : 5.30 to 6.00
CNC(=O)CCCCC[C@H](NC(=O)c1cncs1)c1ncc(-c2ccc3cc(C(F)(F)F)ncc3c2)[nH]1 : > 6.00

Ask: Please indicate pIC50 recorded for CNC(=O)CCCCC[C@H](NC(=O)c1cnn(C)c1)c1ncc(-c2ccc(-c3ccn(C)n3)cc2)o1
Result: < 5.30

Ask: Give the measured pIC50 for CNC(=O)CCCCC[C@H](NC(=O)CN(C)C)c1ncc(-c2cc3ccccc3nc2OC)[nH]1
Result: 5.30 to 6.00

Ask: Specify pIC50 for CNC(=O)CCCCC[C@H](NC(=O)CN1CCCC1)c1ncc(-c2ccc3ccncc3c2)[nH]1 and stop.
Result: 5.30 to 6.00

Ask: Respond only with pIC50 recorded for CNC(=O)CCCCC[C@H](NC(=O)CN1CCN(C)CC1)c1ncc(-c2ccc3ccccc3c2)[nH]1
Result: 5.30 to 6.00

Ask: Answer with reported pIC50 of CNC(=O)CCCCC[C@H](OC(=O)C12CCN(CC1)CC2)c1ncc(-c2cc3ccccc3nc2OC)o1
Result: > 6.00

Ask: Retrieve pIC50 measured for CNC(=O)CCCCC[C@H](NC(=O)c1ccn(C(F)F)n1)c1ncc(-c2ccc(-c3ccn(C)n3)cc2)[nH]1 and print it.
Result: < 5.30

Ask: Quote pIC50 reported for CNC(=O)CCCCC[C@H](NC(=O)c1cncs1)c1ncc(-c2ccc3nc(C(F)(F)F)ccc3c2)[nH]1 please.
Result: 5.30 to 6.00

Ask: Answer with the recorded pIC50 of CNC(=O)CCCCC[C@H](NC(=O)c1cnsc1)c1ncc(-c2ccc(-c3ccn(C)n3)cc2)[nH]1 only.
Result: 5.30 to 6.00

Ask: Identify measured pIC50 corresponding to CNC(=O)CCCCC[C@H](NC(=O)C1CCCO1)c1ncc(-c2cc3ccccc3nc2OC)[nH]1 (stereo partly drawn)
Result: < 5.30

Ask: Output pIC50 of CNC(=O)CCCCC[C@H](NC(=O)C12CCN(CC1)CC2)c1ncc(-c2ccc3ccccc3c2)[nH]1
Result: > 6.00
